Reference source for all entries: PubChem BioAssay (NCI)

Tested on: OVCAR-5 ovarian
Assay: NCI tumour cell line growth inhibition, 48 h; in the data active = GI50 below about 0.43 µM; inactive = the rest
// allowed return values: true (1) = active, false (0) = inactive

stdin: Hello, I am checking results. What call was entered for COc1ccc(-c2cc(/C=C3\C(=O)Nc4ccc(OC)cc43)[nH]n2)cc1 ?
stdout: false (0)

stdin: Hello, I am checking results. What call was entered for COc1cc2c3c(n(C)c(=O)c2cc1OC)-c1cc2c(cc1/C3=C\CCCBr)OCO2 ?
stdout: false (0)

stdin: Hello, I am checking results. What call was entered for CCN(CC)CCCC(Nc1c2ccc(Cl)cc2nc2ccc(OC)cc12)c1ccc(F)cc1 (stereo unspecified) ?
stdout: false (0)
